Let's go through some recorded Minimum inhibitory concentration, Ab A ATCC 17978 values for Acinetobacter baumannii together.
Positions of bridges follow the written chain, without caps; N, C: chain ends. Non-standard residues stand in square brackets, D forms with d. Residues, ends and D or L forms follow the SMILES beside them. *: point of attachment. X20 = Cc1cc(C(=O)*)ccc1C(F)(F)F; X11 = Cc1ccc(C(=O)*)cc1Cl; dNva = CCC[C@@H](N)C(=O)O; Octanoyl = CCCCCCCC(=O)*; Dab = NCC[C@H](N)C(=O)O; Abu = CC[C@H](N)C(=O)O; Dap = NC[C@H](N)C(=O)O
Numeric answer only, unit µg/mL assumed.

COMPOUND	TESTED_TARGET	RECORDED_VALUE
CCCCCCCC(=O)N[C@@H](CCN)C(=O)N[C@H](C(=O)N[C@@H](CN)C(=O)N[C@H]1CCNC(=O)[C@H]([C@@H](C)O)NC(=O)[C@H](CCN)NC(=O)[C@H](CCN)NC(=O)[C@H](CC)NC(=O)[C@@H](CCC)NC(=O)[C@H](CCN)NC1=O)[C@@H](C)O [Compound 69] (Octanoyl-[Dab]T[Dap][Dab][Dab][dNva][Abu][Dab][Dab]T; lactam 4-C)	Acinetobacter baumannii	0.5
CC[C@@H]1NC(=O)[C@@H](CC(C)C)NC(=O)[C@H](CCN)NC(=O)[C@@H](NC(=O)[C@H](CN)NC(=O)[C@@H](NC(=O)[C@H](CCN)NC(=O)c2ccc(C)c(Cl)c2)[C@@H](C)O)CCNC(=O)[C@H]([C@@H](C)O)NC(=O)[C@H](CCN)NC(=O)[C@H](CCN)NC1=O [Compound 105] (X11-[Dab]T[Dap][Dab][Dab][dL][Abu][Dab][Dab]T; lactam 4-C)	Acinetobacter baumannii	0.5

In the following, a different compound is considered.
Prompt: Endpoint output: Minimum inhibitory concentration, Ab A ATCC 17978 of CC[C@@H]1NC(=O)[C@@H](CC(C)C)NC(=O)[C@H](CCN)NC(=O)[C@@H](NC(=O)[C@H](CN)NC(=O)[C@@H](NC(=O)[C@H](CCN)NC(=O)c2ccc(C(F)(F)F)c(C)c2)[C@@H](C)O)CCNC(=O)[C@H]([C@@H](C)O)NC(=O)[C@H](CCN)NC(=O)[C@H](CCN)NC1=O [Compound 119] (X20-[Dab]T[Dap][Dab][Dab][dL][Abu][Dab][Dab]T; lactam 4-C) . Value?
Completion: 0.5

###

Let's go through some recorded Minimum inhibitory concentration, Ab A ATCC 17978 values for Acinetobacter baumannii together.
Positions of bridges follow the written chain, without caps; N, C: chain ends. Non-standard residues stand in square brackets, D forms with d. Residues, ends and D or L forms follow the SMILES beside them. *: point of attachment. Decanoyl = CCCCCCCCCC(=O)*; Heptanoyl = CCCCCCC(=O)*; Dab = NCC[C@H](N)C(=O)O; Abu = CC[C@H](N)C(=O)O; Dap = NC[C@H](N)C(=O)O
Numeric answer only, unit µg/mL assumed.

MOLECULE	TESTED_TARGET	U	RECORDED_VALUE
CCCCCCCCCC(=O)N[C@@H](CCN)C(=O)N[C@H](C(=O)N[C@@H](CCN)C(=O)N[C@H]1CCNC(=O)[C@H]([C@@H](C)O)NC(=O)[C@H](CCN)NC(=O)[C@H](CCN)NC(=O)[C@H](C(C)C)NC(=O)[C@@H](CC(C)C)NC(=O)[C@H](CCN)NC1=O)[C@@H](C)O [Compound 41] (Decanoyl-[Dab]T[Dab][Dab][Dab][dL]V[Dab][Dab]T; lactam 4-C)	Acinetobacter baumannii	µg/mL	1

Prompt: Request - read-out Minimum inhibitory concentration, Ab A ATCC 17978 | tested on Acinetobacter baumannii | molecule CCCCCCC(=O)N[C@@H](CCN)C(=O)N[C@H](C(=O)N[C@@H](CN)C(=O)N[C@H]1CCNC(=O)[C@H]([C@@H](C)O)NC(=O)[C@H](CCN)NC(=O)[C@H](CCN)NC(=O)[C@H](CC)NC(=O)[C@@H](CC(C)C)NC(=O)[C@H](CCN)NC1=O)[C@@H](C)O [Compound 64] (Heptanoyl-[Dab]T[Dap][Dab][Dab][dL][Abu][Dab][Dab]T; lactam 4-C)
Completion: 0.5

###

system: K. pneumoniae FADDI-KP032; test: In vivo efficacy in mouse blood infection model (neutropenic Swiss mice); conditions: compound, free base 4 mg/kg intravenously 2 h after inoculation, blood at 4 h
Positions of bridges follow the written chain, without caps; N, C: chain ends. Non-standard residues stand in square brackets, D forms with d. Residues, ends and D or L forms follow the SMILES beside them. *: point of attachment. Benzoyl(4-CF3) = O=C(c1ccc(C(F)(F)F)cc1)*; X4 = O=C(c1ccc(Cl)c(Cl)c1)*; X6 = O=C(c1ccc(F)c(Cl)c1)*; Dab = NCC[C@H](N)C(=O)O; Abu = CC[C@H](N)C(=O)O; Dap = NC[C@H](N)C(=O)O
MEASURED_PROPERTY: Δ log (Treated-Control at 4 h) (log10 CFU/mL)
Numeric answer only, unit log10 CFU/mL assumed.

The cases that follow already have their Δ log (Treated-Control at 4 h) on record.
COMPOUND	TESTED_TARGET	U	RECORDED_VALUE
CC[C@@H]1NC(=O)[C@@H](CC(C)C)NC(=O)[C@H](CCN)NC(=O)[C@@H](NC(=O)[C@H](CN)NC(=O)[C@@H](NC(=O)[C@H](CCN)NC(=O)c2ccc(F)c(Cl)c2)[C@@H](C)O)CCNC(=O)[C@H]([C@@H](C)O)NC(=O)[C@H](CCN)NC(=O)[C@H](CCN)NC1=O [Compound 110] (X6-[Dab]T[Dap][Dab][Dab][dL][Abu][Dab][Dab]T; lactam 4-C)	K. pneumoniae FADDI-KP032	log10 CFU/mL	−2.50
CC[C@@H]1NC(=O)[C@@H](CC(C)C)NC(=O)[C@H](CCN)NC(=O)[C@@H](NC(=O)[C@H](CN)NC(=O)[C@@H](NC(=O)[C@H](CCN)NC(=O)c2ccc(Cl)c(Cl)c2)[C@@H](C)O)CCNC(=O)[C@H]([C@@H](C)O)NC(=O)[C@H](CCN)NC(=O)[C@H](CCN)NC1=O [Compound 71] (X4-[Dab]T[Dap][Dab][Dab][dL][Abu][Dab][Dab]T; lactam 4-C)	K. pneumoniae FADDI-KP032	log10 CFU/mL	−2.98

In the following, a different compound is considered.
Prompt: Endpoint output: Δ log (Treated-Control at 4 h) of CC[C@@H]1NC(=O)[C@@H](CC(C)C)NC(=O)[C@H](CCN)NC(=O)[C@@H](NC(=O)[C@H](CN)NC(=O)[C@@H](NC(=O)[C@H](CCN)NC(=O)c2ccc(C(F)(F)F)cc2)[C@@H](C)O)CCNC(=O)[C@H]([C@@H](C)O)NC(=O)[C@H](CCN)NC(=O)[C@H](CCN)NC1=O [Compound 74] ({Benzoyl(4-CF3)}-[Dab]T[Dap][Dab][Dab][dL][Abu][Dab][Dab]T; lactam 4-C) . Value?
Completion: −2.94

###

test system: Acinetobacter baumannii
Positions of bridges follow the written chain, without caps; N, C: chain ends. Non-standard residues stand in square brackets, D forms with d. Residues, ends and D or L forms follow the SMILES beside them. *: point of attachment. Benzoyl(3-CF3) = O=C(c1cccc(C(F)(F)F)c1)*; X15 = O=C(c1ccc(Cl)c(F)c1)*; dNva = CCC[C@@H](N)C(=O)O; Octanoyl = CCCCCCCC(=O)*; Dab = NCC[C@H](N)C(=O)O; Abu = CC[C@H](N)C(=O)O; Dap = NC[C@H](N)C(=O)O
MEASURED_PROPERTY: Minimum inhibitory concentration, Ab A ATCC 17978

Prompt: Request - read-out Minimum inhibitory concentration, Ab A ATCC 17978 | tested on Acinetobacter baumannii | compound CCCCCCCC(=O)N[C@@H](CCN)C(=O)N[C@H](C(=O)N[C@@H](CN)C(=O)N[C@H]1CCNC(=O)[C@H]([C@@H](C)O)NC(=O)[C@H](CCN)NC(=O)[C@H](CCN)NC(=O)[C@H]([C@@H](C)O)NC(=O)[C@@H](CCC)NC(=O)[C@H](CCN)NC1=O)[C@@H](C)O [Compound 49] (Octanoyl-[Dab]T[Dap][Dab][Dab][dNva]T[Dab][Dab]T; lactam 4-C)
Completion: 0.5 mg/L

Prompt: Request - read-out Minimum inhibitory concentration, Ab A ATCC 17978 | tested on Acinetobacter baumannii | compound CC[C@@H]1NC(=O)[C@@H](CC(C)C)NC(=O)[C@H](CCN)NC(=O)[C@@H](NC(=O)[C@H](CN)NC(=O)[C@@H](NC(=O)[C@H](CCN)NC(=O)c2ccc(Cl)c(F)c2)[C@@H](C)O)CCNC(=O)[C@H]([C@@H](C)O)NC(=O)[C@H](CCN)NC(=O)[C@H](CCN)NC1=O [Compound 107] (X15-[Dab]T[Dap][Dab][Dab][dL][Abu][Dab][Dab]T; lactam 4-C)
Completion: 0.5 mg/L

Prompt: Request - read-out Minimum inhibitory concentration, Ab A ATCC 17978 | tested on Acinetobacter baumannii | compound CCCCCCCC(=O)N[C@@H](CCN)C(=O)N[C@H](C(=O)N[C@@H](CCN)C(=O)N[C@H]1CCNC(=O)[C@H]([C@@H](C)O)NC(=O)[C@H](CCN)NC(=O)[C@H](CCN)NC(=O)[C@H]([C@@H](C)O)NC(=O)[C@@H](Cc2ccccc2)NC(=O)[C@H](CCN)NC1=O)[C@@H](C)O [Compound 22] (Octanoyl-[Dab]T[Dab][Dab][Dab][dF]T[Dab][Dab]T; lactam 4-C)
Completion: 1 mg/L

Prompt: Request - read-out Minimum inhibitory concentration, Ab A ATCC 17978 | tested on Acinetobacter baumannii | compound CCCCCCCC(=O)N[C@@H](CCN)C(=O)N[C@H](C(=O)N[C@@H](CN)C(=O)N[C@H]1CCNC(=O)[C@H]([C@@H](C)O)NC(=O)[C@H](CCN)NC(=O)[C@H](CCN)NC(=O)[C@H](CC)NC(=O)[C@@H](Cc2ccccc2)NC(=O)[C@H](CCN)NC1=O)[C@@H](C)O [Compound 130] (Octanoyl-[Dab]T[Dap][Dab][Dab][dF][Abu][Dab][Dab]T; lactam 4-C)
Completion: 0.25 mg/L

Prompt: Request - read-out Minimum inhibitory concentration, Ab A ATCC 17978 | tested on Acinetobacter baumannii | compound CC[C@@H]1NC(=O)[C@@H](CC(C)C)NC(=O)[C@H](CCN)NC(=O)[C@@H](NC(=O)[C@H](CN)NC(=O)[C@@H](NC(=O)[C@H](CCN)NC(=O)c2cccc(C(F)(F)F)c2)[C@@H](C)O)CCNC(=O)[C@H]([C@@H](C)O)NC(=O)[C@H](CCN)NC(=O)[C@H](CCN)NC1=O [Compound 106] ({Benzoyl(3-CF3)}-[Dab]T[Dap][Dab][Dab][dL][Abu][Dab][Dab]T; lactam 4-C)
Completion: 0.5 mg/L
